These measurements were taken from ChEMBL document CHEMBL1201862.

# System: HL-60
# Test: NCI tumour cell line growth inhibition, 48 h
Activity calls are given as the source filed them. Cut-off read from the data, not from the text of the source: active = GI50 up to about 1.1 µM and inactive = higher.
GI50 values for the compounds below.
Quantity Kind: GI50

{"Compound": "CN(C)c1n/c(=N/c2ccc(/N=c3\\nc(N(C)C)ss3)cc2)ss1", "Measurement Target": "HL-60", "Result": "12.4 µM (inactive)"}
{"Compound": "NCCCNCCCCN(CCCN)/[N+]([O-])=N\\O", "Measurement Target": "HL-60", "Result": "> 100 µM (inactive)"}
{"Compound": "O=Cc1[nH]c(=O)[nH]c(=O)c1CCl", "Measurement Target": "HL-60", "Result": "38 µM (inactive)"}
{"Compound": "COc1ccc(C(=O)C(CC2C(=O)NC(=O)NC2=O)c2ccc(OC)cc2)cc1 (stereo unspecified)", "Measurement Target": "HL-60", "Result": "> 100 µM (inactive)"}
{"Compound": "CCOC(=O)c1c(NC(=O)c2ccccc2)sc2c1CCC2", "Measurement Target": "HL-60", "Result": "> 100 µM (inactive)"}
{"Compound": "COc1cc(C(=O)C/C(CCC(=O)Nc2ccc(Cl)cc2Cl)=N/NC(=O)C(=O)NN)ccc1O", "Measurement Target": "HL-60", "Result": "> 100 µM (inactive)"}
{"Compound": "CCOP(=O)(/C=C\\n1ccc(N)nc1=O)OCC", "Measurement Target": "HL-60", "Result": "> 100 µM (inactive)"}
{"Compound": "CC1(C)CC(=O)c2c(nc3c(ccc4ccccc43)c2-c2ccc(NC(=O)CCCCC(=O)Nc3ccc(-c4c5c(nc6c4ccc4ccccc46)CC(C)(C)CC5=O)cc3)cc2)C1", "Measurement Target": "HL-60", "Result": "29.6 µM (inactive)"}
{"Compound": "O=c1c2ccccc2nc(-c2ccccc2Cl)n1NC1OC(CO)C(O)C(O)C1O (stereo unspecified)", "Measurement Target": "HL-60", "Result": "> 100 µM (inactive)"}
{"Compound": "CCOC(=O)c1sc(N/N=C2\\NC(=O)/C(=C/c3ccc([N+](=O)[O-])cc3)S2)nc1C", "Measurement Target": "HL-60", "Result": "22.8 µM (inactive)"}
{"Compound": "O=[N+]([O-])c1cc(/C=N/NS(=O)(=O)c2ccc(F)cc2)c(O)c([N+](=O)[O-])c1", "Measurement Target": "HL-60", "Result": "38.5 µM (inactive)"}
{"Compound": "CC(=O)NNc1nc(C)c(C(=O)NNC(=O)C(=O)Nc2c(Cl)cc([N+](=O)[O-])cc2Cl)s1", "Measurement Target": "HL-60", "Result": "28.2 µM (inactive)"}
{"Compound": "N#Cc1ccc(Sc2nc3ccccc3[nH]2)cc1", "Measurement Target": "HL-60", "Result": "84.3 µM (inactive)"}
{"Compound": "CC1C(O)Oc2cc3c(cc2C1c1ccccc1O)OCO3 (stereo unspecified)", "Measurement Target": "HL-60", "Result": "17.9 µM (inactive)"}
{"Compound": "C[C@]1(O)O[C@@H]2OCC[C@@H]2C2=C1C(=O)c1ccccc1C2=O", "Measurement Target": "HL-60", "Result": "12.3 µM (inactive)"}
{"Compound": "Cn1cnc(CCc2ccccc2)n1", "Measurement Target": "HL-60", "Result": "> 100 µM (inactive)"}
